# System: RXF 393 renal
# assay-comment: NCI-60 one-dose screen, 48 h
# particulars: 10 µM unless noted
About 83,000 compounds went through this panel and 20% of them were active in at least one assay; those are over-represented in the sample as a whole. Active and inactive are the calls of the source. The calls were made as follows: active = growth percent below 10; inactive = the rest.
Outcomes: TRUE = active, FALSE = inactive

{"columns": ["compound", "target-system", "assigned-class"],
 "data": [
  ["COc1cc(/C=C2\\CCC/C(=C\\c3cc(CN4CCOCC4)c(O)c(OC)c3)C2=O)cc(CN2CCOCC2)c1O", "RXF 393 renal", "TRUE"],
  ["O=C(Cn1cc(COc2ncnc3c2cnn3-c2ccccc2)nn1)Nc1ccccn1", "RXF 393 renal", "FALSE"],
  ["CCOC(=O)c1cnc2ccc(Cl)cc2c1NCCCN(C)C", "RXF 393 renal", "TRUE"],
  ["O=C(Nc1ccccc1O)c1ccc(Oc2cccc(C(=O)Nc3ccccc3O)c2)cc1", "RXF 393 renal", "FALSE"],
  ["Cc1ccc(Cn2c(N3CCC(C(=O)NCc4cccs4)CC3)nc3ccccc32)cc1", "RXF 393 renal", "FALSE"],
  ["O=C(CSc1ccc2nnc(-c3cccc(F)c3)n2n1)Nc1ccc2c(c1)OCO2", "RXF 393 renal", "FALSE"],
  ["CCOc1cc(Cl)c(C(C)NC(=O)c2cccc(OC)c2)cc1OCC (stereo not given)", "RXF 393 renal", "TRUE"],
  ["Clc1ccc(COc2ccc(Nc3ncnc4onc(-c5ccccc5)c34)cc2)cc1", "RXF 393 renal", "FALSE"],
  ["COc1ccc(/C(C#N)=C/c2nc3c(N4CCOCC4)nc(Cl)nc3n2C)cc1OC", "RXF 393 renal", "TRUE"],
  ["COC(=O)c1c2c(c(C)[n+]([O-])c1C)C(=O)C(NCc1ccc(F)c(F)c1)=CC2=O", "RXF 393 renal", "FALSE"]
]}
